# Tested on: 786-0
# TEST: NCI one-dose screen
# Type: cell-based
# EXPERIMENTAL_SETUP: Homo sapiens; 786-0, 10 µM; read-out: Growth Percent
ENDPOINT: activity at 10 µM (%)
Write the number in % without appending the unit.

Before answering, review these 2 worked examples.
Consider the molecule O=C(/C=C/c1ccc(Br)cc1)c1ccc(-n2cc(CN3CCN(c4cc5c(cc4F)c(=O)c(C(=O)O)cn5C4CC4)CC3)nn2)cc1 [Compound 4d] and give its measured activity at 10 µM. 72.2

Consider the molecule O=C(/C=C/c1ccccc1)c1ccc(-n2cc(CN3CCN(c4cc5c(cc4F)c(=O)c(C(=O)O)cn5C4CC4)CC3)nn2)cc1 [Compound 4a] and give its measured activity at 10 µM. 87.9

Then this molecule:
Consider the molecule O=C(/C=C/c1ccc(Cl)cc1)c1ccc(-n2cc(CN3CCN(c4cc5c(cc4F)c(=O)c(C(=O)O)cn5C4CC4)CC3)nn2)cc1 [Compound 4c] and give its measured activity at 10 µM. 54.2

----------
# System: RXF 393
# TEST: NCI one-dose screen
# Assay type: cell-based
# EXPERIMENTAL_SETUP: Homo sapiens; RXF 393, 10 µM; read-out: Growth Percent
Measured activity at 10 µM values are reported for all entries that follow.
Write the number in % without appending the unit.

Consider the compound `COc1cc(/C=C/C(=O)c2ccc(-n3cc(CN4CCN(c5cc6c(cc5F)c(=O)c(C(=O)O)cn6C5CC5)CC4)nn3)cc2)cc(OC)c1OC` and give its measured activity at 10 µM. 4.51

Consider the compound `O=C(/C=C/c1ccc(Cl)cc1)c1ccc(-n2cc(CN3CCN(c4cc5c(cc4F)c(=O)c(C(=O)O)cn5C4CC4)CC3)nn2)cc1` and give its measured activity at 10 µM. 58.3

----------
# System: A549/ATCC
# TEST: NCI one-dose screen
# Format: cell-based
# EXPERIMENTAL_SETUP: Homo sapiens, read-out: Growth Percent
Measured activity at 10 µM values are reported for all entries that follow.
# number then unit; no other words

Before answering, review these 5 worked examples.
Consider the molecule O=C(/C=C/c1ccc(Cl)cc1)c1ccc(-n2cc(CN3CCN(c4cc5c(cc4F)c(=O)c(C(=O)O)cn5C4CC4)CC3)nn2)cc1 [Compound 4c] and give its measured activity at 10 µM. 88.9%

Consider the molecule CN(C)c1ccc(/C=C/C(=O)c2ccc(-n3cc(CN4CCN(c5cc6c(cc5F)c(=O)c(C(=O)O)cn6C5CC5)CC4)nn3)cc2)cc1 [Compound 4h] and give its measured activity at 10 µM. 93.5%

Consider the molecule O=C(/C=C/c1ccc(F)cc1)c1ccc(-n2cc(CN3CCN(c4cc5c(cc4F)c(=O)c(C(=O)O)cn5C4CC4)CC3)nn2)cc1 [Compound 4e] and give its measured activity at 10 µM. 82.2%

Consider the molecule COc1ccc(/C=C/C(=O)c2ccc(-n3cc(CN4CCN(c5cc6c(cc5F)c(=O)c(C(=O)O)cn6C5CC5)CC4)nn3)cc2)cc1OC [Compound 4i] and give its measured activity at 10 µM. 66.1%

Consider the molecule COc1cc(/C=C/C(=O)c2ccc(-n3cc(CN4CCN(c5cc6c(cc5F)c(=O)c(C(=O)O)cn6C5CC5)CC4)nn3)cc2)cc(OC)c1OC [Compound 4j] and give its measured activity at 10 µM. 15.7%

Others:
Consider the molecule O=C(/C=C/c1ccccc1)c1ccc(-n2cc(CN3CCN(c4cc5c(cc4F)c(=O)c(C(=O)O)cn5C4CC4)CC3)nn2)cc1 [Compound 4a] and give its measured activity at 10 µM. 89.8%

Consider the molecule O=C(/C=C/c1cccc(Cl)c1)c1ccc(-n2cc(CN3CCN(c4cc5c(cc4F)c(=O)c(C(=O)O)cn5C4CC4)CC3)nn2)cc1 [Compound 4b] and give its measured activity at 10 µM. 71.6%
